- assay-system: AMPKα2 (recombinant AMPKα2β1γ1) (Homo sapiens, UniProt P54619+P54646+Q9Y478)
- Construct: recombinant AMPKα2β1γ1 heterotrimer (#P48-10H, SignalChem); with AMPKβ1, AMPKγ1
- Sequence (P54646 whole entry): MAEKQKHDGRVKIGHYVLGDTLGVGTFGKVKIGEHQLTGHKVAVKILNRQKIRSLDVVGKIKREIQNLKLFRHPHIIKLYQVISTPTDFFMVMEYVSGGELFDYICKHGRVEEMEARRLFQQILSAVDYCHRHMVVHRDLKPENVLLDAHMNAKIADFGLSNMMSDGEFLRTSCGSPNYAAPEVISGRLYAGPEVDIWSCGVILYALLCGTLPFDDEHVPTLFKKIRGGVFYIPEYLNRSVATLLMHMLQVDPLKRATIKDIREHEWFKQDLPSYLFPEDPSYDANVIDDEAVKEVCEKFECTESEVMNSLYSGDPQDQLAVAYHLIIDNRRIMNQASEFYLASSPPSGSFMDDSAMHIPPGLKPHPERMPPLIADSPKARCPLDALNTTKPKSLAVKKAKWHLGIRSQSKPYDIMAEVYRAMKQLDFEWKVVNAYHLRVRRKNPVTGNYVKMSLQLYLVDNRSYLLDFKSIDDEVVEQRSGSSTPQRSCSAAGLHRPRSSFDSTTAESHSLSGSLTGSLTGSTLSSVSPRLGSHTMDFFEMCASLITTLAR
- Sequence (Q9Y478 2-270 partner): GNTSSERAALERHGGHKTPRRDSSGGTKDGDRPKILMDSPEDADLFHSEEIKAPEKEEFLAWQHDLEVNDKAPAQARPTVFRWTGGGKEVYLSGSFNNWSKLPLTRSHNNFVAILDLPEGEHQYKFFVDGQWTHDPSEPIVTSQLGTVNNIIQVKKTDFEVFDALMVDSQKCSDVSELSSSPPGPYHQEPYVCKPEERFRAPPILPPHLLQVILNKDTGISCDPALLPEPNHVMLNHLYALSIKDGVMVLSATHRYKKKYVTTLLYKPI
- Sequence (P54619 whole entry partner): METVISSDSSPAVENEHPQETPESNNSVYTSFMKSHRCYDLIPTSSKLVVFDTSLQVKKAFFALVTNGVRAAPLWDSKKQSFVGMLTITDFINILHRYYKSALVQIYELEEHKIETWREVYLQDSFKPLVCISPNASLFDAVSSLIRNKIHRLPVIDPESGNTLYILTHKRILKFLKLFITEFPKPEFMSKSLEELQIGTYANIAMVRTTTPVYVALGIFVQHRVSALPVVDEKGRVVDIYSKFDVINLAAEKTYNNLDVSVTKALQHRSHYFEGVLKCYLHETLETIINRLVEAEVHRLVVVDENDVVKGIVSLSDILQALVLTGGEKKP
- method-summary: radiometric in vitro kinase assay with SAMS peptide and […]-ATP
pIC50: −log10 of the molar value.

| molecule | pIC50 |
| --- | --- |
| CN[C@@H]1C(O)[C@H]2O[C@@](C)([C@@H]1OC)n1c3ccccc3c3c4c(c5c6ccccc6n2c5c31)C(=O)NC4 (stereo partly shown) [5-OH-S, 5′-hydroxy-staurosporine] | 6.23 |

---

- assay-system: AMPKα1 (recombinant AMPKα1β1γ1) (Homo sapiens)
- Construct: recombinant AMPKα1β1γ1 heterotrimer (#P47-10H, SignalChem); with AMPKβ1, AMPKγ1
- Sequence (Q13131 whole entry): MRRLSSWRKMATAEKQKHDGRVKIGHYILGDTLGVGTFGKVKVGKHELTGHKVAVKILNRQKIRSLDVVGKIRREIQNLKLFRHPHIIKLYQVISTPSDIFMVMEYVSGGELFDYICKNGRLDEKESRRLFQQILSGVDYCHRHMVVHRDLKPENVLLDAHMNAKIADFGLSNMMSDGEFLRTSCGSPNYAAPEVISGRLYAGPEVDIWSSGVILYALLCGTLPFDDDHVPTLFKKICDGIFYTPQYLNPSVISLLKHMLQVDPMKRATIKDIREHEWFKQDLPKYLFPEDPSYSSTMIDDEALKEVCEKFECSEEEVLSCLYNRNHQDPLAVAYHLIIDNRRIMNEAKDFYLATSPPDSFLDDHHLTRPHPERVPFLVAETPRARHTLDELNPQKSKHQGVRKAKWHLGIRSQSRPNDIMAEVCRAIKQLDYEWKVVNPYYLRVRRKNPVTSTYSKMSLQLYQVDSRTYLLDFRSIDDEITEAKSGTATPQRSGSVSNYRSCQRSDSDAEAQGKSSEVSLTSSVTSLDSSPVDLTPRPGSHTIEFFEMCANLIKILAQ
- Sequence (Q9Y478 2-270 partner): as the sequence (Q9Y478 2-270 partner) above
- Sequence (P54619 whole entry partner): as the sequence (P54619 whole entry partner) above
- method-summary: radiometric in vitro kinase assay with SAMS peptide and […]-ATP; Lineweaver-Burk; IC50 […]
recorded-metric: Ki (µM)

| molecule | recorded-metric | quantity-unit | val |
| --- | --- | --- | --- |
| CN[C@@H]1C(O)[C@H]2O[C@@](C)([C@@H]1OC)n1c3ccccc3c3c4c(c5c6ccccc6n2c5c31)C(=O)NC4 (stereo partly shown) [5-OH-S, 5′-hydroxy-staurosporine] | Ki | µM | 0.347 |
